target: Progesterone receptor (Homo sapiens, UniProt P06401); assay: Inhibition of human progesterone receptor
Sequence (P06401 whole entry): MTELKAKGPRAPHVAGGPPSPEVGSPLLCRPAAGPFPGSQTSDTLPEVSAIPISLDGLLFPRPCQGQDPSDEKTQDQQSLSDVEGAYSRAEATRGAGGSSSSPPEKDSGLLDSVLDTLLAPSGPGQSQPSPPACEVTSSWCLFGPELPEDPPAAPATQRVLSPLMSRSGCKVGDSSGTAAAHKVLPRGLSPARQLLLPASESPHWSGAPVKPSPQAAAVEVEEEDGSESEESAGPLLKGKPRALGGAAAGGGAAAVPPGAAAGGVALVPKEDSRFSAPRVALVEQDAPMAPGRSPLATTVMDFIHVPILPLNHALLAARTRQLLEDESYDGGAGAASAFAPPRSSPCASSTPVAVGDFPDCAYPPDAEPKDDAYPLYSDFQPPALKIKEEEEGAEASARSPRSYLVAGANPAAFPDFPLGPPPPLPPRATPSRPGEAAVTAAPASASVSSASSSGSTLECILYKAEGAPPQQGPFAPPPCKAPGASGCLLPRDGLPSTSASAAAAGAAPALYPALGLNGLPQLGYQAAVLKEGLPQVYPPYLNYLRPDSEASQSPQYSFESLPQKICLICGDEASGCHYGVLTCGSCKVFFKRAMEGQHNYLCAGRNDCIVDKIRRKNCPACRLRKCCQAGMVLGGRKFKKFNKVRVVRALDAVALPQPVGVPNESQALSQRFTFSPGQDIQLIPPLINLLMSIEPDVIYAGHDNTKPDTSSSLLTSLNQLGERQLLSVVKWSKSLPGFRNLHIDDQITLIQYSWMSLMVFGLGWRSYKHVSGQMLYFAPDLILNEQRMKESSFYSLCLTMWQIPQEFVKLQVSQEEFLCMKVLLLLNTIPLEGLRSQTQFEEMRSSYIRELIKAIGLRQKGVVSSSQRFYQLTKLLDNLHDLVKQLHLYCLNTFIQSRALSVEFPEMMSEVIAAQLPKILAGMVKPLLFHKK
READOUT LABEL: IC50 (nM)
Give bare numbers, in nM.

Requested read-out: IC50. Entry: CC(C)n1c(=O)[nH]c2ccc(-c3cccc(Cl)c3)cc21
73

----------
tested on: T47D; test: Effective concentration against alkaline phosphatase activity in human T47D breast carcinoma cell line; format: functional, cell-based
READOUT LABEL: log10(EC50) (log10 of the value in nM)
Answers are given as log10 of EC50 in nM.

Study these solved cases before continuing.
# COMPOUND, log10(EC50)
measured = [
    ("CCC1(C)OC(S)=Nc2ccc(-c3ccc(C#N)n3C)cc21 (stereo unspecified)", -1.00),
    ("CCC1(CC)OC(S)=Nc2ccc(-c3ccc(C#N)n3C)cc21", -1.00),
    ("CC1(C)OC(S)=Nc2ccc(-c3csc(C#N)c3)cc21", -0.40),
]

Provide log10(EC50) values for the following items, in order.
1. CC1(C)OC(=S)Nc2ccc(-c3ccc(C#N)[nH]3)cc21
2. CN1C(=S)OC(C)(C)c2cc(-c3ccc(C#N)[nH]3)ccc21
3. CC1Nc2ccc(-c3ccc(F)c(C#N)c3)cc2C(C)(C)O1 (stereo unspecified)
4. Cn1c(C#N)ccc1-c1ccc2c(c1)C(C)(C)OC(=O)N2
5. Cn1c(C#N)ccc1-c1ccc2c(c1)C1(CCC1)OC(S)=N2

-0.82
1.32
1.36
0.04
-0.30

----------
tested on: T47D; assay: Effective concentration against alkaline phosphatase activity in human T47D breast carcinoma cell line; type: functional, cell-based
Provide the recorded pEC50 for the entries that follow.
Answers are plain numbers, as −log10 of the molar value.

Study these solved cases before continuing.
# COMPOUND, TEST SYSTEM, pEC50
measured = [
    ("CC1(C)OC(S)=Nc2ccc(-c3coc(C#N)c3)cc21", "T47D", 8.92),
    ("Cn1c(C#N)ccc1-c1ccc2c(c1)C(C)(c1cccs1)OC(S)=N2 (stereo not drawn)", "T47D", 9.46),
]

The record that follows has no pEC50 shown yet.
Requested read-out: pEC50. Entry: Cn1c(C#N)ccc1-c1ccc2c(c1)C(C)(C)OC(=S)N2
9.82

Source: ChEMBL document CHEMBL1140352
